System: HLA-A24
Format: binding, human
Recorded Endpoint: binding to HLA-A24 (column 6; no allele head shown for these rows)
Provide a numeric answer; units are not to be included.

// query binding to HLA-A24 (column 6; no allele head shown for these rows) value for entry "GLLGDNQIM" 0.0002

----------
Catalogue of sequences with associated IC50
Biological target: DRB1*0405 (Homo sapiens, UniProt P01903+P01911, A100R/A169T/D86S/F76Y/I96L/K127E/L162R/M171V/N62H/P40V/Q125Y/R42H/S133A/S149N/S66Y/V115G/V209L/W38E)
Test: biochemical
Type: binding
No end group written: not given here.
Reply numerically in nM, unit not repeated.

The following sequences have reported results that may help.
1. IIHLKGDKNSLKCLR [Peptide 90.0218]; 12700
2. EDEIDTDLDGFIDDS [Peptide 90.0126]; 1020

// query IC50 value for entry WQLIRLENAILFTAR [Peptide 90.0211] 308

----------
Catalogue of sequences with associated pIC50
Target: DRB1*0301 (Homo sapiens, UniProt P01903+P01911, A100K/A102G/A103R/A169T/F55Y/I96L/K41T/L162R/M171V/P40S/Q125H/Q178H/Q39Y/R42S/S66N/T106N/T262R/W38E/Y61H)
Sequence (P01903 26-254 limits assumed, other chains not shown): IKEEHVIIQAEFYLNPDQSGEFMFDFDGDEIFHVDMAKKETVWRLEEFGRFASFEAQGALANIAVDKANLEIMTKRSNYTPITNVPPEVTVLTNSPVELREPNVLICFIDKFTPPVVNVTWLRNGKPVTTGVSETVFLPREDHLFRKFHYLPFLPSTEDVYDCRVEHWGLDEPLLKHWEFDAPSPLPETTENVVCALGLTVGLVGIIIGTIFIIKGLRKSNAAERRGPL
Test: biochemical
Assay type: binding
No end group written: not given here.
Note on pIC50: it is the negative log10 of concentration, concentration in mol/L.

The following sequences have reported results that may help.
1) DNDIVDDSEIAYKYA [Peptide 90.0037]; 7.55
2) QMMLETLNNTEYKNE [Peptide 1601.22]; 5.02
3) VHEGIRTYFVQFKDD [Peptide 1601.05]; 5.03

// query pIC50 value for entry AFQVIELQMALETLS [Peptide 89.0181] 7.48

// query pIC50 value for entry GCWRQTSREPRESTV [Peptide 1543.46] 6.04

----------
Target: DRB1*1302 (Homo sapiens, UniProt P01903+P01911, A100E/A169T/K41T/L162R/M171V/P40S/Q125H/Q178H/Q39Y/Q99D/R42S/S66N/T262R/V115G/W38E/Y61H)
Sequence (P01903 26-254 limits assumed, other chains not shown): as above
Experiment: biochemical
Assay type: binding
No end group written: not given here.
Catalogue of sequences with associated IC50
Reply numerically in nM, unit not repeated.

The following sequences have reported results that may help.
1) VTAIFGVNPTIAEGF [Peptide 89.0023]; 193
2) EIYIIEEDTCTMVTG [Peptide 90.0203]; 577
3) ETCMLIEPPKLRSSV [Peptide 89.0084]; 481
4) KSLFGMSLMKFLQGS [Peptide 89.0020]; 4670

// query IC50 value for entry LKLFLKGVPKKNCIL [Peptide 89.0054] 3380

// query IC50 value for entry DDRWPYLHSRLVVFT [Peptide 89.0058] 2190

// query IC50 value for entry LKAICIENNSKTAKR [Peptide 90.0064] 144

// query IC50 value for entry VMAIFGVNPTVAEGF [Peptide 89.0080] 33

----------
Catalogue of sequences with associated pIC50
Target: HLA-A11 (A*1101) (Homo sapiens, UniProt P04439, A114D/D185E/E176A/F33Y/L180Q/S129P/T187R)
Test: biochemical
Format: binding
No end group written: not given here.
Note on pIC50: it is the negative log10 of concentration, concentration in mol/L.

The following sequences have reported results that may help.
1) SQWIKYRCDR [Peptide 88.0136]; 4.96
2) VTYHSETQR [Peptide 1589.10]; 7.66

Below: the item to evaluate.
Missing value: pIC50, HLA-A11 (A*1101) (Homo sapiens, UniProt P04439, A114D/D185E/E176A/F33Y/L180Q/S129P/T187R), entry HLFRYSWYK [Peptide 76.0171] . Fill in? 7.80

Data provenance: patent US9340577B2
